test system: TZM; test: Cytotoxicity against human TZM-bl cells incubated for 3 days by MTS assay; assay type: cell-based; conditions: 72 h
Parameter: CC50. Scope: all listed entries.

smiles-text	bound-operator	CC50, µM
NC[C@@H](NC(=O)c1ccc(-c2ccc(C(F)(F)F)cn2)[nH]1)c1ncc(CO)s1	>	122
Cc1cc(-c2ccc(C(F)(F)F)cn2)[nH]c1C(=O)N[C@H](c1ncc(CO)s1)C(C)(C)N	=	37.5
NC[C@H](NC(=O)c1ccc(-c2ccc(C(F)(F)F)cn2)[nH]1)c1nc(CO)cs1	=	77.9
NC[C@@H](NC(=O)c1ccc(-c2ccc(Cl)cn2)[nH]1)c1nc(CO)cs1	>	132
Cc1cc(-c2ccc(Cl)cn2)[nH]c1C(=O)N[C@@H](CN)c1ncc(CO)s1	=	95

###

test system: TZM; test: Cytotoxicity against human TZM-bl cells incubated for 3 days by MTS assay; format: cell-based; conditions: 72 h
Parameter: CC50. Scope: all listed entries.
observable: CC50 (µM)

compound	observable	unit-descriptor	bound-operator	test-result
Cc1cc(-c2ccc(C(F)(F)F)cn2)[nH]c1C(=O)NC(C)(CN)c1nc(CO)cs1 (racemic)	CC50	µM	>	68.3
COc1cc(-c2ccc(C(=O)N[C@@H](CN)c3nc(CO)cs3)[nH]2)ccn1	CC50	µM	>	133
Cc1cc(-c2ccc(C(F)(F)F)cn2)[nH]c1C(=O)N[C@H](CN)c1ncc(CO)s1	CC50	µM	=	92.8
Cc1cc(-c2ccc(Cl)cn2)[nH]c1C(=O)N[C@H](CN)c1ncc(CO)s1	CC50	µM	=	98.3
NC[C@H](NC(=O)c1ccc(-c2ncc(Cl)cn2)[nH]1)c1nc(CO)cs1	CC50	µM	>	66
NC[C@H](NC(=O)c1ccc(-c2ccc(C(F)(F)F)cn2)[nH]1)c1ncc(C(O)CO)s1 (some centres undefined)	CC50	µM	>	113
CC(C)(N)[C@@H](NC(=O)c1ccc(-c2ccc(C(F)(F)F)cn2)[nH]1)c1ncc(CO)s1	CC50	µM	=	74
NC[C@H](NC(=O)c1ccc(-c2ccc(C(F)(F)F)nc2)[nH]1)c1nc(CO)cs1	CC50	µM	>	122
NC[C@@H](NC(=O)c1ccc(-c2ccc(Cl)cn2)[nH]1)c1ncc(CO)s1	CC50	µM	=	144

###

test system: TZM; assay: Cytotoxicity against human TZM-bl cells incubated for 3 days by MTS assay; type: cell-based; details: 72 h

smiles-text	unit-descriptor	bound-operator	CC50
NC[C@@H](NC(=O)c1ccc(-c2ccc(C(F)(F)F)cn2)[nH]1)c1nc(CCO)cs1	µM	=	100
NC[C@@H](NC(=O)c1ccc(-c2ccc(C(F)(F)F)cn2)[nH]1)c1nc(CO)c(CO)s1	µM	>	113
NC[C@H](NC(=O)c1ccc(-c2ccc(C(F)(F)F)cn2)[nH]1)c1nc(CCO)cs1	µM	=	91
NC[C@@H](NC(=O)c1ccc(-c2ccc(C(F)(F)F)cn2)[nH]1)c1nccs1	µM	=	89.3
NC[C@H](NC(=O)c1ccc(-c2ccc(Cl)cn2)[nH]1)c1ncc(CO)s1	µM	=	142
NC[C@@H](NC(=O)c1ccc(-c2ccc(C(F)(F)F)nn2)[nH]1)c1nc(CO)cs1	µM	>	73
NC[C@H](NC(=O)c1ccc(-c2ccc(F)cn2)[nH]1)c1nc(CO)cs1	µM	>	138
NC[C@@H](NC(=O)c1ccc(-c2ccc(C(F)(F)F)cn2)[nH]1)c1nc(CO)cs1	µM	=	94.3
NC[C@H](NC(=O)c1ccc(-c2ccc(C(F)(F)F)cn2)[nH]1)c1nccs1	µM	=	93.6
Cc1cc(-c2ccc(C(F)(F)F)cn2)[nH]c1C(=O)N[C@@H](CN)c1nc(CO)cs1	µM	=	85
Cc1ccc(-c2ccc(C(=O)N[C@@H](CN)c3nc(CO)cs3)[nH]2)nc1	µM	>	140
NC[C@H](NC(=O)c1ccc(-c2ccc(Cl)nc2)[nH]1)c1nc(CO)cs1	µM	>	132
NC[C@@H](NC(=O)c1ccc(-c2ccc(C(F)(F)F)cn2)[nH]1)c1nc(CCCO)cs1	µM	>	114

The measurements presented in this section are drawn from ChEMBL document CHEMBL4402563.
